Conditions: 323.1 K, Pendant drop shape
outcomeMeasure: surface tension liquid-gas (mN/m)

{"molecule": "CCCC[P+](C)(CCCC)CCCC.COS(=O)(=O)[O-] [tributylmethylphosphonium methyl sulfate]", "resultUnits": "mN/m", "quantitativeReadout": 32.9}
{"molecule": "CCCCCCCC[P+](CCCCCCCC)(CCCCCCCC)CCCCCCCC.[Br-] [tetraoctylphosphonium bromide]", "resultUnits": "mN/m", "quantitativeReadout": 27.1}
{"molecule": "CC(C)C[P+](C)(CC(C)C)CC(C)C.Cc1ccc(S(=O)(=O)[O-])cc1 [triisobutylmethylphosphonium p-toluenesulfonate]", "resultUnits": "mN/m", "quantitativeReadout": 35}
{"molecule": "CCCC[P+](CC)(CCCC)CCCC.CCOP(=O)([O-])OCC [tributylethylphosphonium diethylphosphate]", "resultUnits": "mN/m", "quantitativeReadout": 28.5}

---

Test: refractive index (Na D-line) (dimensionless)
Conditions: 328.15 K; 101.33 kPa; Liquid; Standard Abbe refractometry
outcomeMeasure: refractive index

{"molecule": "CC(C)C[P+](C)(CC(C)C)CC(C)C.Cc1ccc(S(=O)(=O)[O-])cc1 [triisobutylmethylphosphonium p-toluenesulfonate]", "refractive index": 1.50872}
{"molecule": "CCCC[P+](C)(CCCC)CCCC.COS(=O)(=O)[O-] [tributylmethylphosphonium methyl sulfate]", "refractive index": 1.46603}
{"molecule": "CCCC[P+](CC)(CCCC)CCCC.CCOP(=O)([O-])OCC [tributylethylphosphonium diethylphosphate]", "refractive index": 1.45563}
{"molecule": "CCCCCCCC[P+](CCCCCCCC)(CCCCCCCC)CCCCCCCC.[Br-] [tetraoctylphosphonium bromide]", "refractive index": 1.47916}

---

Assay: refractive index (Na D-line) (dimensionless)
Details: 343.15 K; 101.33 kPa; Liquid; Standard Abbe refractometry
outcomeMeasure: refractive index

{"compound": "CC(C)C[P+](C)(CC(C)C)CC(C)C.Cc1ccc(S(=O)(=O)[O-])cc1 [triisobutylmethylphosphonium p-toluenesulfonate]", "refractive index": 1.50391}
{"compound": "CCCC[P+](CC)(CCCC)CCCC.CCOP(=O)([O-])OCC [tributylethylphosphonium diethylphosphate]", "refractive index": 1.45045}
{"compound": "CCCCCCCC[P+](CCCCCCCC)(CCCCCCCC)CCCCCCCC.[Br-] [tetraoctylphosphonium bromide]", "refractive index": 1.47354}
{"compound": "CCCC[P+](C)(CCCC)CCCC.COS(=O)(=O)[O-] [tributylmethylphosphonium methyl sulfate]", "refractive index": 1.46185}

---

Assay: refractive index (Na D-line) (dimensionless)
Conditions: 333.15 K; 101.33 kPa; Liquid; Standard Abbe refractometry
outcomeMeasure: refractive index

{"compound": "CCCCCCCC[P+](CCCCCCCC)(CCCCCCCC)CCCCCCCC.[Br-] [tetraoctylphosphonium bromide]", "outcomeMeasure": "refractive index", "quantitativeReadout": 1.47699}
{"compound": "CCCC[P+](CC)(CCCC)CCCC.CCOP(=O)([O-])OCC [tributylethylphosphonium diethylphosphate]", "outcomeMeasure": "refractive index", "quantitativeReadout": 1.45385}
{"compound": "CCCC[P+](C)(CCCC)CCCC.COS(=O)(=O)[O-] [tributylmethylphosphonium methyl sulfate]", "outcomeMeasure": "refractive index", "quantitativeReadout": 1.46457}
{"compound": "CC(C)C[P+](C)(CC(C)C)CC(C)C.Cc1ccc(S(=O)(=O)[O-])cc1 [triisobutylmethylphosphonium p-toluenesulfonate]", "outcomeMeasure": "refractive index", "quantitativeReadout": 1.50698}
